- measurement-protocol: Rat brain radioactivity content and metabolite profiles after single oral 5 mg/kg [14C]DCDQ
- Assay type: in vivo, Sprague-Dawley rats
- particulars: Sprague-Dawley, rat, brain/plasma, oral, 5 mg/kg; female rats, 2 hr; read-out: Brain/Plasma Ratio, DCDQ
- Description: At sacrifice, blood samples were collected by cardiac puncture into tubes containing EDTA as the anticoagulant and placing them on ice. Aliquots of 50 μL were removed for combustion and determination of radioactivity content. […] The biological specimens and aliquots of the dosing solution at pre- and post-dose were stored at approximately −70° C. until analyzed. […] Brain homogenates were analyzed for metabolite profiles. […] Samples were also analyzed by LC/MS to characterize the radioactive peaks. […]
reported-endpoint: Kp at 2 h
In your answer, state the number alone without any accompanying words.

Lookup: Could you tell me which Kp at 2 h is on file for c1cc2c3c(c1)[C@H]1CCC[C@H]1CN3CCNC2 [DCDQ, reference compound] ?
Found: 49.9

---

- measurement-protocol: Dog plasma metabolite profiles after single 15 mg/kg oral capsule of [14C]DCDQ
- Format: in vivo, beagle dogs
- particulars: male, beagle, dog, plasma, oral, 15 mg/kg, 4 hr, dog 2; read-out: Estimated plasma concentration in dogs
- Method: For plasma profiles, a TopCount NXT radiometric microplate reader (Perkin Elmer) was used to analyze the radioactivity in collected HPLC fractions. The limit of detection by TopCount was about 1 ng equivalent/mL. A Flo-One β Model A525 radioactivity detector (Perkin Elmer) with a 250 μL LQTR flow cell was used to acquire data for urine and fecal samples. […] Plasma samples were analyzed for metabolite profiles by HPLC. […] The plates were dried overnight in an oven at 40° C. and analyzed by a TopCount. […]
reported-endpoint: concentration at 4 h (ng/mL)
Numbers only; they are read as ng/mL.

molecule	value-unit	concentration at 4 h
c1cc2c3c(c1)[C@H]1CCC[C@H]1CN3CCNC2 [DCDQ, reference compound]	ng/mL	345

Lookup: Could you tell me which concentration at 4 h is on file for OC1[C@@H]2CCC[C@@H]2c2cccc3c2N1CCNC3 (stereo partly drawn) [Metabolite M2, hydroxy DCDQ] ?
Found: 192

Lookup: Could you tell me which concentration at 4 h is on file for OC1CN2C[C@@H]3CCC[C@@H]3c3cccc(c32)CN1 (stereo partly drawn) [Metabolite M1, hydroxy DCDQ] ?
Found: 80.9

Lookup: Could you tell me which concentration at 4 h is on file for O=C1CC[C@@H]2c3cccc4c3N(CCNC4)C[C@H]12 [Metabolite M7, 17-keto DCDQ] ?
Found: 127

Lookup: Could you tell me which concentration at 4 h is on file for [O-][N+]12CCN=Cc3cccc(c31)[C@H]1CCC[C@H]1C2 (stereo partly drawn) [Metabolite M5, DCDQ imine N-oxide] ?
Found: 86.6

Lookup: Could you tell me which concentration at 4 h is on file for O=C(O)[C@H]1O[C@@H](OC(=O)N2CCN3C[C@@H]4CCC[C@@H]4c4cccc(c43)C2)[C@H](O)[C@@H](O)[C@@H]1O [Metabolite M6, carbamoyl glucuronide of DCDQ] ?
Found: 215

---

- measurement-protocol: Rat brain radioactivity content and metabolite profiles after single oral 5 mg/kg [14C]DCDQ
- Type: in vivo, Sprague-Dawley rats
- particulars: Sprague-Dawley, rat, brain/plasma, oral, 5 mg/kg; female rats, 8 hr; read-out: Brain/Plasma Ratio, DCDQ
reported-endpoint: Kp at 8 h
In your answer, state the number alone without any accompanying words.

Lookup: Could you tell me which Kp at 8 h is on file for c1cc2c3c(c1)[C@H]1CCC[C@H]1CN3CCNC2 [DCDQ, reference compound] ?
Found: 56.1
